These measurements were taken from patent US20240270821A1.

# testedTarget: hGLP-1R (Homo sapiens, UniProt P43220)
# Sequence (P43220 24-463): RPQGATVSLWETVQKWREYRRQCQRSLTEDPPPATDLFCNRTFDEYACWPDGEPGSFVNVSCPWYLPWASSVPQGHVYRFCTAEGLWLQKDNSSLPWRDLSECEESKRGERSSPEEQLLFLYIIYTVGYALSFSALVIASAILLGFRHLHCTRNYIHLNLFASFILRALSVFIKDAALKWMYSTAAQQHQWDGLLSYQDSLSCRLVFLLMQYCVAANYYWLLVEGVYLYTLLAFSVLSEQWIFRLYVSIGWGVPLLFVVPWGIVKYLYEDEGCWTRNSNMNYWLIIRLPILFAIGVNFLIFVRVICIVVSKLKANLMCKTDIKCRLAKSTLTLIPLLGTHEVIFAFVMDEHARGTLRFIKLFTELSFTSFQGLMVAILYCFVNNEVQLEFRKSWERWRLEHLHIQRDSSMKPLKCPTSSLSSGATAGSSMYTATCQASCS
# method: Functional cAMP activation in the presence of 0.1% casein (no HSA);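 note: intracellular cAMP rise after 30 min at 37 °C read by HTRF, normalized between buffer only (0%) and maximal control ligand (100%), four-parameter variable-slope fit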
# Format: cell-based
# experimentalConditions: read-out: Relative cAMP EC50, hGLP-1R
Starred links: 1 amine or outer side, 2 acyl side, 3 side chain; linkers in the order of their positions; H or OH if unused. Non-standard residues stand in square brackets, D forms with d. Groups on a side chain read outwards from the residue. No end group written: not given here. *: point of attachment. C18 diacid = O=C(O)CCCCCCCCCCCCCCCCC(=O)*; αMePhe(2-F) = C[C@](N)(Cc1ccccc1F)C(=O)O; γGlu = O=C(O)[C@H](CCC(=O)[*:2])N[*:1]; αMe4Pal = C[C@](N)(Cc1ccncc1)C(=O)O; αMeY = C[C@](N)(Cc1ccc(O)cc1)C(=O)O; 4Pal = N[C@@H](Cc1ccncc1)C(=O)O; αMeL = CC(C)C[C@](C)(N)C(=O)O; αMeS = C[C@](N)(CO)C(=O)O; Orn = NCCC[C@H](N)C(=O)O; AEEA = NCCOCCOCC(=O)O; Aib = CC(C)(N)C(=O)O
measuredAttribute: pEC50
The value called pEC50 is obtained by taking minus log10 of the concentration in mol/L.

Example substances with recorded pEC50:
substance	pEC50
Y[Aib]QGT[αMePhe(2-F)]TSD[4Pal][αMeS]I[αMeL]LD[Orn]K([AEEA-γGlu-C18 diacid])AA[Aib]EFI[dE][αMeY]LIEGGPSSGAPPPSGGGE-NH2 [Example 745]	9.67
H-Y[Aib]QGT[αMePhe(2-F)]TSD[4Pal]SI[αMeL]LD[Orn]K([AEEA-γGlu-C18 diacid])AQ[αMe4Pal][Orn]FI[dE][αMeY]LIEGGPSSGDPPPEGTE-NH2 [Example 731]	9.57
Y[Aib]QGT[αMePhe(2-F)]TSD[4Pal][αMeS]I[αMeL]LD[Orn]K([γGlu-γGlu-C18 diacid])AQ[Aib][Orn]FI[dE][αMeY]LTEGGPSSGEPPPEGTEE-NH2 [Example 597]	9.22
H-Y[Aib]QGT[αMePhe(2-F)]TSD[4Pal]SI[αMeL]LD[Orn]K([AEEA-γGlu-C18 diacid])AQ[αMe4Pal][Orn]FI[dE][αMeY]LIEGGPSSGEPPPEGE-NH2 [Example 675]	9.60

API: the following record is the query input.
Entry H-Y[Aib]QGT[αMePhe(2-F)]TSD[4Pal][αMeS]I[αMeL]LD[Orn]K([AEEA-γGlu-C18 diacid])AA[Aib]EFI[dE][αMeY]LIEGGPSSGEPPPSGGGE-NH2 [Example 746] , hGLP-1R (Homo sapiens, UniProt P43220) data, pEC50 value: 9.58

---

# testedTarget: human GcgR (Homo sapiens)
# method: Functional cAMP activity in the presence of 1% HSA
# Assay type: cell-based
# experimentalConditions: read-out: cAMP Rel EC50, hGcgR
Starred links: 1 amine or outer side, 2 acyl side, 3 side chain; linkers in the order of their positions; H or OH if unused. Non-standard residues stand in square brackets, D forms with d. Groups on a side chain read outwards from the residue. *: point of attachment. C20 diacid = O=C(O)CCCCCCCCCCCCCCCCCCC(=O)*; C18 diacid = O=C(O)CCCCCCCCCCCCCCCCC(=O)*; γGlu = O=C(O)[C@H](CCC(=O)[*:2])N[*:1]; αMe4Pal = C[C@](N)(Cc1ccncc1)C(=O)O; 4Pal = N[C@@H](Cc1ccncc1)C(=O)O; αMeL = CC(C)C[C@](C)(N)C(=O)O; Orn = NCCC[C@H](N)C(=O)O; AEEA = NCCOCCOCC(=O)O; Aib = CC(C)(N)C(=O)O
Here the recorded EC50 is given for each entry.
Respond with a number, then the unit of measure.

substance	EC50
H-Y[Aib]QGTFTSDFS[Orn][αMeL]LDKK([AEEA-γGlu-C18 diacid])AQ[Aib]AFIEYLLEGGPSSGAPPPGGSE-NH2 [Example 65]	808 nM
H-Y[Aib]QGTFTSDFSK[αMeL]LDKK([AEEA-γGlu-C20 diacid])AQ[Aib]AFIEYLLAGGPSSGAPPPSGS-NH2 [Example 14]	1420 nM

API: the following record is the query input.
Kindly note the recorded EC50 for H-Y[Aib]QGTFTSD[4Pal]S[Orn][αMeL]LD[Orn]K([γGlu-γGlu-C18 diacid])AQ[αMe4Pal]AFIE[αMe4Pal]LIE[Aib]GPSSGEPPPSGS-NH2 [Example 991] , which is 405 nM

---

Here the recorded Tmax is given for each entry.
# method: in vivo
# Set-up: species or system cynomolgus monkeys
# experimentalConditions: both sexes, cynomolgus monkey, po, 300 mg
Starred links: 1 amine or outer side, 2 acyl side, 3 side chain; linkers in the order of their positions; H or OH if unused. Non-standard residues stand in square brackets, D forms with d. Groups on a side chain read outwards from the residue. *: point of attachment. C18 diacid = O=C(O)CCCCCCCCCCCCCCCCC(=O)*; αMePhe(2-F) = C[C@](N)(Cc1ccccc1F)C(=O)O; γGlu = O=C(O)[C@H](CCC(=O)[*:2])N[*:1]; αMe4Pal = C[C@](N)(Cc1ccncc1)C(=O)O; αMeY = C[C@](N)(Cc1ccc(O)cc1)C(=O)O; 4Pal = N[C@@H](Cc1ccncc1)C(=O)O; αMeL = CC(C)C[C@](C)(N)C(=O)O; αMeS = C[C@](N)(CO)C(=O)O; Orn = NCCC[C@H](N)C(=O)O; AEEA = NCCOCCOCC(=O)O; Aib = CC(C)(N)C(=O)O
Give the quantity in h, number only.

Example substances with recorded Tmax:
substance	reportedResult
H-Y[Aib]QGT[αMePhe(2-F)]TSD[4Pal]SILLDKK([γGlu-γGlu-C18 diacid])AQ[Aib]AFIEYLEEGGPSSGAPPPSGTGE-NH2 [Example 510]	2
H-Y[Aib]QGT[αMePhe(2-F)]TSD[4Pal][αMeS]I[αMeL]LD[Orn]K([AEEA-γGlu-C18 diacid])AQ[αMe4Pal]EFI[dE][αMeY]LVEGGPSSGAPPPSGS-NH2 [Example 694]	3.5

Kindly note the recorded Tmax for H-Y[Aib]QGTFTSD[4Pal]SQ[αMeL]LD[Orn]K([γGlu-γGlu-C18 diacid])AQ[αMe4Pal]AFIE[αMeY]LIEGGPSSGEPPPSGSEE-NH2 [Example 1027] , which is 2.5

---

# testedTarget: hGcgR (Homo sapiens, UniProt P47871)
# Sequence (P47871 26-477): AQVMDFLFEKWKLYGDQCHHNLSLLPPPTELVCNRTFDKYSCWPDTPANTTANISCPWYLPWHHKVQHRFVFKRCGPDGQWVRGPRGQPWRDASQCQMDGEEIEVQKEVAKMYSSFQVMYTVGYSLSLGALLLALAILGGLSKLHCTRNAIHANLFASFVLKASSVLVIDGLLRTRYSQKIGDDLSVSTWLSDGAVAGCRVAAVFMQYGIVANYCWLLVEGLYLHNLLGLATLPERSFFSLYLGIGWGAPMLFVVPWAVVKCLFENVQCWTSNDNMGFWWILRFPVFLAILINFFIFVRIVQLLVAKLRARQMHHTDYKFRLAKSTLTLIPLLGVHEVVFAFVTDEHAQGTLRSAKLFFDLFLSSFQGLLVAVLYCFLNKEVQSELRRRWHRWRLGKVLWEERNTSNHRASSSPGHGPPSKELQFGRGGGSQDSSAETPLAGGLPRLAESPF
# method: Functional cAMP activation in the presence of 0.1% casein (no HSA);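 note: intracellular cAMP rise after 30 min at 37 °C, read by HTRF against a cAMP standard curve, scaled from buffer only (0%) to maximal control ligand response (100%)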
# Type: cell-based
# experimentalConditions: in the presence of 0.1% casein (no HSA); geometric mean; read-out: Relative cAMP EC50, hGcgR
Starred links: 1 amine or outer side, 2 acyl side, 3 side chain; linkers in the order of their positions; H or OH if unused. Non-standard residues stand in square brackets, D forms with d. Groups on a side chain read outwards from the residue. *: point of attachment. C20 diacid = O=C(O)CCCCCCCCCCCCCCCCCCC(=O)*; C18 diacid = O=C(O)CCCCCCCCCCCCCCCCC(=O)*; αMePhe(2-F) = C[C@](N)(Cc1ccccc1F)C(=O)O; γGlu = O=C(O)[C@H](CCC(=O)[*:2])N[*:1]; αMe4Pal = C[C@](N)(Cc1ccncc1)C(=O)O; αMeY = C[C@](N)(Cc1ccc(O)cc1)C(=O)O; 4Pal = N[C@@H](Cc1ccncc1)C(=O)O; αMeL = CC(C)C[C@](C)(N)C(=O)O; αMeS = C[C@](N)(CO)C(=O)O; Orn = NCCC[C@H](N)C(=O)O; AEEA = NCCOCCOCC(=O)O; Aib = CC(C)(N)C(=O)O
measuredAttribute: pEC50
The value called pEC50 is obtained by taking minus log10 of the concentration in mol/L.

Example substances with recorded pEC50:
substance	measuredAttribute	reportedResult
H-Y[Aib]QGTFTSD[4Pal]S[Orn][αMeL]LDKK([γGlu-γGlu-C18 diacid])AQ[αMe4Pal]AFIE[αMe4Pal]LIEGGPSSGAPPPSGSEE-NH2 [Example 958]	pEC50	8.50
H-Y[Aib]QGTFTSDFS[Orn][αMeL]LDKK([AEEA-γGlu-C18 diacid])AQ[Aib]AFIEYLLEGGPSSGAPPPGGSG-NH2 [Example 64]	pEC50	8.31
H-Y[Aib]QGTFTSDFS[Orn][αMeL]LDKK([AEEA-γGlu-C20 diacid])AQ[Aib]AFIEYLLE[Aib]GPSSGAPPPSGS-NH2 [Example 73]	pEC50	8.34
H-Y[Aib]QGTFTSD[4Pal]SQ[αMeL]LDKK([γGlu-γGlu-C18 diacid])AQ[αMe4Pal]AFIEYLIAGGESSGAPPPSGSEE-NH2 [Example 963]	pEC50	8.24
H-Y[Aib]QGTFTSD[4Pal][αMeS]Q[αMeL]LD[Orn]K([dE-γGlu-C18 diacid])AQ[αMe4Pal]QFIE[αMeY]LIE[Aib]GPSSGAPPPSGGGE-NH2 [Example 1187]	pEC50	8.74
H-Y[Aib]QGT[αMePhe(2-F)]TSDYSKLLDEIAQK([AEEA-γGlu-C20 diacid])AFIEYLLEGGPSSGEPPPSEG-NH2 [Example 303]	pEC50	8.21
H-Y[Aib]QGTFTSDFS[Orn][αMeL]LDKK([AEEA-γGlu-C18 diacid])AQ[Aib]QFIEYLLAGGPSSGAPPPEGS-NH2 [Example 96]	pEC50	7.85
H-Y[Aib]QGTFTSDFS[Orn][αMeL]LDKK([AEEA-γGlu-C20 diacid])AQ[Aib]AFIEYLLAGGPSSGAPPPSGD-NH2 [Example 81]	pEC50	8.11

Kindly note the recorded pEC50 for H-Y[Aib]QGTFTSD[4Pal]S[Orn][αMeL]LDKK([γGlu-γGlu-C18 diacid])AQ[αMe4Pal]AFIEYLIAGGPSSGEPPPSGTEE-NH2 [Example 981] , which is 8.43

Kindly note the recorded pEC50 for H-Y[Aib]QGTFTSD[4Pal]SQ[αMeL]LDKK([γGlu-γGlu-C18 diacid])AQ[αMe4Pal]AFIE[αMe4Pal]LIEGGPSSGAPPPSGS-NH2 [Example 951] , which is 8.24

Kindly note the recorded pEC50 for H-Y[Aib]QGTFTSD[4Pal]SK[αMeL]LDKK([AEEA-γGlu-C18 diacid])AQ[Aib]AFIEYLIE[Aib]GESSGAPPPSGS-NH2 [Example 280] , which is 8.06

Kindly note the recorded pEC50 for H-Y[Aib]QGTFTSD[4Pal]S[Orn][αMeL]LD[Orn]K([γGlu-γGlu-C18 diacid])AQ[αMe4Pal]AFIE[αMeY]LIEGGPSSGAPPPSGS-NH2 [Example 1013] , which is 8.70
